System: HepG2
Experimental protocol: GSK_TCMDC: Percent inhibition of human HepG2 cell line. Test compounds present at 10uM.
Assay type: functional
Quantity kind: Inhibition (%)
Dear colleague, please return just the value in %, with no unit written.

Query block: Which Inhibition reading was recorded for the compound CCn1cnc2c(N3CCCCS3(=O)=O)cc(C(=O)N[C@@H](Cc3ccccc3)[C@H](O)CNC3CCOCC3)cc21 ?
Result block: 7

Query block: Can you check N#Cc1ccc(-c2cnc3ccc(NCc4ccc(S(N)(=O)=O)cc4)nn23)cc1 next?
Result block: 7

Query block: Can you check c1ccc2sc(Sc3ncnc4sccc34)nc2c1 next?
Result block: 7

---

Test system: HepG2
Experimental protocol: GSK_TCMDC: Percent inhibition of human HepG2 cell line. Test compounds present at 10uM.
Assay type: functional
Quantity kind: Inhibition (%)
Dear colleague, please return just the value in %, with no unit written.

Query block: Which Inhibition reading was recorded for the compound COc1cc2nc(NCCc3ccccc3)nc(N(C)Cc3ccccc3)c2cc1OC ?
Result block: 31

Query block: Can you check Cc1c(Cl)ccc2c(C(=O)Nc3ccncc3)cc(-c3cccnc3)nc12 next?
Result block: 16

Query block: Can you check CCCc1cc(C(=O)N[C@@H](Cc2ccccc2)[C@H](O)CNC2CCOCC2)c(F)c(N2CCCCS2(=O)=O)c1 next?
Result block: 0

Query block: Can you check Cl.Nc1cccc(C=CC(=O)N=c2cc[nH]c3ccccc23)c1 next?
Result block: 7

Query block: Can you check CCN(CC)CCN(Cc1ccc(-c2ccc(C(F)(F)F)cc2)cc1)C(=O)Cn1c(CCc2ccc(F)c(F)c2F)nc(=O)c2ccccc21.O=C(O)C(O)C(O)C(=O)O next?
Result block: 38

Query block: Can you check O=C(Nc1ccc(Cl)cc1)c1ccc(CN2CCCN(Cc3cccc(F)c3)CC2)cc1.O=C(O)C(F)(F)F next?
Result block: 59

Query block: Can you check COc1cc(F)c2ncc(Cl)c(CCN3CCC(NCc4ccc5c(n4)NC(=O)CS5)CC3)c2c1.Cl next?
Result block: 18

Query block: Can you check O=C(Nc1ccc(Cl)cc1)Nc1ccc2c(c1)N1CCN=C1S2 next?
Result block: 15

---

System: Plasmodium falciparum
Experimental protocol: GSK_TCMDC: Inhibition of Plasmodium falciparum Dd2 in whole red blood cells, using parasite LDH activity as an index of growth. Test compounds present at 2uM
Assay type: functional
Quantity kind: Inhibition (%)
Dear colleague, please return just the value in %, with no unit written.

Query block: Given the entry CCOC(=O)c1ccc(NC(=O)N[C@@H](Cc2ccc(O)cc2)C(=O)NC2CCN(Cc3ccc4c(c3)OCO4)CC2)cc1.O=C(O)C(F)(F)F , what Inhibition was observed with Plasmodium falciparum?
Result block: 24

Query block: Can you check CCCCCCCc1c(C)nc2cccc(OC)c2c1O next?
Result block: 47

Query block: Can you check Cc1n[nH]c2ccc(-c3cc(OC[C@@H](N)Cc4ccccc4)cnc3-c3ccc(OCc4cccc(F)c4)cc3)cc12.O=C(O)C(F)(F)F next?
Result block: 59

Query block: Can you check CCn1c(-c2nonc2N)nc2c(-c3cccc(NC(=O)NC45CC6CC(CC(C6)C4)C5)c3)ncc(OCCCN)c21.O=C(O)C(F)(F)F next?
Result block: 63

Query block: Can you check Clc1ccc(-c2cc(-c3csc(NCCN4CCCCC4)n3)on2)cc1 next?
Result block: 30

Query block: Can you check COc1ccc(NCCCNc2ccnc3ccccc23)cc1 next?
Result block: 17

---

Please go through the items and note down their Inhibition.
Tested on: HepG2
Experimental protocol: GSK_TCMDC: Percent inhibition of human HepG2 cell line. Test compounds present at 10uM.
Format: functional
Dear colleague, please return just the value in %, with no unit written.

Query block: Which Inhibition reading was recorded for the molecule NC1CCN(c2nc(NCCc3ccc(O)cc3)nc(NCc3ccccc3-c3ccc(C(F)(F)F)cc3)n2)CC1.O=C(O)C(F)(F)F ?
Result block: 18

Query block: Can you check Cc1ccccc1C1CCN(C2CCC(NC(=O)/C=C/c3ccc(F)c(F)c3)CC2)CC1 (stereo not drawn) next?
Result block: 34

Query block: Can you check CC(C)C1C(O)=C(c2ccc3ccccc3c2)C(=O)N1Cc1cccc(F)c1 (stereo not drawn) next?
Result block: 3

Query block: Can you check COc1ccccc1C1CCN(C2CCC(NC(=O)/C=C/c3ccc(OC(F)(F)F)cc3)CC2)CC1 (stereo not drawn) next?
Result block: 65

Query block: Can you check COc1cc(-c2nc3ccc(N4CCN(C)CC4)cc3[nH]2)cc(OC)c1OC next?
Result block: 6

Query block: Can you check COc1ccc(CNC2Cc3ccccc3C2)cc1-c1ccc(S(=O)(=O)NCc2ccccc2)s1.O=C(O)C(F)(F)F next?
Result block: 22

Query block: Can you check COc1ccc(Nc2nccc(-c3ccc(NC(=O)c4cc5cc(F)ccc5[nH]4)cc3)n2)cc1 next?
Result block: 21

Query block: Can you check CCn1c(-c2nonc2N)nc2c(-c3cccc(NC(=O)Nc4ccccc4OC)c3)ncc(OCCCN)c21.O=C(O)C(F)(F)F next?
Result block: 84

---

System: Plasmodium falciparum
Experimental protocol: GSK_TCMDC: Inhibition of Plasmodium falciparum 3D7 in whole red blood cells, using parasite LDH activity as an index of growth. Test compounds present at 2uM
Type: functional
Quantity kind: Inhibition (%)
Dear colleague, please return just the value in %, with no unit written.

Query block: Which Inhibition reading was recorded for the compound Cc1cccc2nc(O)c([N+](=O)[O-])c(O)c12 ?
Result block: 95

Query block: Can you check Cc1cc(N[C@@H](Cc2ccccc2)C(=O)NCc2cccs2)nc(NCCc2ccccc2)n1.O=C(O)C(F)(F)F next?
Result block: 92

Query block: Can you check Cc1ccc(-c2cc(C(=O)Nc3ccc(S(=O)(=O)N4CC(C)OC(C)C4)cc3)[nH]n2)c(O)c1 (stereo unspecified) next?
Result block: 91

Query block: Can you check Cc1cc(-c2ccc(CN3Cc4ccccc4C3)cc2)ccc1S(=O)(=O)NCCN1CCCC1.O=C(O)C(F)(F)F next?
Result block: 94

Query block: Can you check O=C(Nc1cccc(OCCN2CCCC2)c1)Nc1ccc(Cl)c(Cl)c1.O=C(O)C(F)(F)F next?
Result block: 98

Query block: Can you check Cc1[nH]c(C)c(Cc2ccc(Oc3ccc(OC(F)(F)F)cc3)cc2)c(=O)c1Br next?
Result block: 96

---

Tested on: HepG2
Experimental protocol: GSK_TCMDC: Percent inhibition of human HepG2 cell line. Test compounds present at 10uM.
Format: functional
Quantity kind: Inhibition

Query block: Which Inhibition reading was recorded for the compound CC(Cc1ccc(NC(=O)c2ccc(NCCc3ccccc3)cc2)cc1)NCCc1cccc(Cl)c1.Cl (centres undefined) ?
Result block: 25%

Query block: Can you check O=S(=O)(c1ccc(Cl)cc1Cl)N1CCCCC(c2ccc(C(F)(F)F)cc2)=N1 next?
Result block: 10%

Query block: Can you check COc1ccc(NC(=O)c2ccc(NC(=O)c3ccc(Cl)cc3)cc2)cc1N1CCN(C)CC1 next?
Result block: 23%

Query block: Can you check COc1cc(Cc2cnc(N)nc2N)ccc1Oc1ccc(N)cc1 next?
Result block: 0%

---

Test system: HepG2
Experimental protocol: GSK_TCMDC: Percent inhibition of human HepG2 cell line. Test compounds present at 10uM.
Format: functional
Binary call on Inhibition: true from 3% upward, false beneath that.

Query block: Identify whether the reported Inhibition of the following compound is 3% or greater: Cc1cc(C(=O)Nc2ccc3c(c2)CCN3C2CCN(Cc3cccc(F)c3F)C2)no1 (centres undefined)
Result block: false

Query block: Can you check O=C(CN1CCC2(CCC1=O)CC(=O)c1ccccc1O2)NCCN1CCOCC1 (centres undefined) next?
Result block: true

Query block: Can you check Cc1cc(NCCCCCCN)nc(Nc2ccc(Cl)cc2)n1 next?
Result block: true

Query block: Can you check CC(C)(C)Cn1cc(-c2ccc(C(=O)NCCc3ccc(S(C)(=O)=O)cc3)cc2)c(N)n1.CC(C)(C)Cn1ncc(-c2ccc(C(=O)NCCc3ccc(S(C)(=O)=O)cc3)cc2)c1N.O=C(O)C(F)(F)F next?
Result block: true

Query block: Can you check O=C(Nc1ccc(OC2CCN(Cc3ccsc3)CC2)c(Cl)c1)c1ccco1.O=C(O)C(F)(F)F next?
Result block: true

Query block: Can you check Cc1cccc2nc(-c3ccc(-c4ccc(CNCC(C)C)cc4)cc3)[nH]c12.O=C(O)C(F)(F)F next?
Result block: true

Query block: Can you check CCOC(=O)CN(c1ccc(Br)cc1OCCOc1cc(Br)ccc1N(CC(=O)OCC)C(C)C(=O)OCC)C(C)C(=O)OCC (centres undefined) next?
Result block: false

Query block: Can you check Oc1ccc(CN2CCC(N3CCN(CCc4ccccc4)CC3)C(O)C2)cc1Cl (centres undefined) next?
Result block: false

Query block: Can you check Cc1ccc(C2(C)CN(CCCOc3cccc(-c4ccc(C(=O)NC(C)C)cc4)c3)CCO2)cc1 (centres undefined) next?
Result block: true

Query block: Can you check CCCC(C)Nc1nc(C)cc(N[C@@H](Cc2ccccc2)C(=O)Nc2ccccc2)n1.O=C(O)C(F)(F)F (some centres undefined) next?
Result block: true

Query block: Can you check CCn1c(-c2nonc2N)nc2c(-c3cccc(NC(=O)NC45CC6CC(CC(C6)C4)C5)c3)ncc(OCCCN)c21.O=C(O)C(F)(F)F next?
Result block: true
